Provide the reported koff of each item.
- Subject of test: T1, Human IL2Rγ extracellular domain expressed with a C-terminal myc-myc-hexahistidine tag (human)
- T1 construct: also called hIL-2Rg-MMH; hIL-2RG-MMH
- T1 chain: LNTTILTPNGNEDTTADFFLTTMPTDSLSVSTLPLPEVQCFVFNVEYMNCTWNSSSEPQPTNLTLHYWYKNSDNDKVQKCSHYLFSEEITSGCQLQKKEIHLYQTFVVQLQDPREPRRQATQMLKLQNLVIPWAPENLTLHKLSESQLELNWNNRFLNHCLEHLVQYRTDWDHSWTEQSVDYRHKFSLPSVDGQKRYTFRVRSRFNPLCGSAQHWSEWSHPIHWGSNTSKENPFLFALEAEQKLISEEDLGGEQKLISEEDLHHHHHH
- Measurement description: SPR Biacore 4000, mAb captured by anti-hFc, HBS-ET, 37C
Kindly answer with a numeric value in s⁻¹, unit omitted.

State the recorded koff for this entry: H4H12858P (antibody, human IgG4 S228P, kappa, V domains shown, anti-IL2Rγ monoclonal antibody expressed with human IgG4 Fc; also called REGN9433) VH: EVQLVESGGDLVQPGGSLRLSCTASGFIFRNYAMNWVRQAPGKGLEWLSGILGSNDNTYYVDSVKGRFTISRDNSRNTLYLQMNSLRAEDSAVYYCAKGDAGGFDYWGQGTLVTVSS VL: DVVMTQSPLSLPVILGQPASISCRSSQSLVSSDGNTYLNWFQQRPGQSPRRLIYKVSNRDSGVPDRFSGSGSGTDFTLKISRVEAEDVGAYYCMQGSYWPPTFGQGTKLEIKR 0.00174

Fill in: koff of H4H12884P (antibody, human IgG4 S228P, kappa, V domains shown, anti-IL2Rγ monoclonal antibody expressed with human IgG4 Fc) VH: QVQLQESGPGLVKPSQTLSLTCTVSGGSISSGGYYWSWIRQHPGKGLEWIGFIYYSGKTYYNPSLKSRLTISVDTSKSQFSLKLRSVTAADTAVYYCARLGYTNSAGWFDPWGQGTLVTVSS VL: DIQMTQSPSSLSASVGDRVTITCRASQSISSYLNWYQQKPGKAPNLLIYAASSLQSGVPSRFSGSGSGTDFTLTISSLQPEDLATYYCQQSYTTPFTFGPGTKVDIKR is ___ 0.00336

Consider the binder H4H12874P (antibody, human IgG4 S228P, kappa, V domains shown, anti-IL2Rγ monoclonal antibody expressed with human IgG4 Fc) VH: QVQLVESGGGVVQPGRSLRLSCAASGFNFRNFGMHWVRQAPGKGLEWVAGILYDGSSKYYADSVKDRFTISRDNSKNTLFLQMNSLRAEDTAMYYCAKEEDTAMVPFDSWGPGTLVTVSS VL: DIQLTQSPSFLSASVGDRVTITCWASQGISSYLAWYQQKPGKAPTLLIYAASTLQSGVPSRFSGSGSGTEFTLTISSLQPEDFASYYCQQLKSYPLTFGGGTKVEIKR and give its measured koff. 0.00125

Reported koff, binder H4H13538P (antibody, human IgG4 S228P, kappa, V domains shown, anti-IL2Rγ monoclonal antibody expressed with human IgG4 Fc) VH: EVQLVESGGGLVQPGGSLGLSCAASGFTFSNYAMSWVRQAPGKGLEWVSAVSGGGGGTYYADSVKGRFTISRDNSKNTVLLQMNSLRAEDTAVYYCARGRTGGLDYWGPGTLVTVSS VL: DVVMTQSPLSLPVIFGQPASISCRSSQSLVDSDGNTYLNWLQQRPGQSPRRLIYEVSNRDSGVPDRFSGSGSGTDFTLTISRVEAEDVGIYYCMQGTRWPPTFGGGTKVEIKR : ____ 0.00108

What measured koff goes with H4H13541P (antibody, human IgG4 S228P, kappa, V domains shown, anti-IL2Rγ monoclonal antibody expressed with human IgG4 Fc) VH: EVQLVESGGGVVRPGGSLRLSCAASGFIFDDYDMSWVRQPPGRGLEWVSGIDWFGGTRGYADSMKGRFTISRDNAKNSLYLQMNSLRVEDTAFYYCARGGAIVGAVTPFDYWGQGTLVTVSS VL: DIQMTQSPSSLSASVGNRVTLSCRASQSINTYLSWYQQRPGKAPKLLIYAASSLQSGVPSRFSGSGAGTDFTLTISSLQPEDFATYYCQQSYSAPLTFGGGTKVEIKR ? 0.00078
